Target Entity: T1, human IL-17A (construct not stated) (human, UniProt Q16552 24-155, limits assumed)
T1 construct: also called huIL-17A; human IL-17A biotin
T1 sequence: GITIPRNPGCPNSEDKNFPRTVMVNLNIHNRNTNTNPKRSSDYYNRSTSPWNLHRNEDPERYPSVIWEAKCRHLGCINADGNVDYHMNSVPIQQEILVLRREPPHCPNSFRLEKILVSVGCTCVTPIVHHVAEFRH
Test Description: ELISA on coated huIL-17A, crude Fab extract
Record form. Attribute: Classic ELISA (normalized to XAB1 Fab). Fill in for each entry.

Prompt line: Please report the recorded Classic ELISA (normalized to XAB1 Fab) for MB450 (Fab, V domains shown, heavy chain C-terminal Flag tag) VH: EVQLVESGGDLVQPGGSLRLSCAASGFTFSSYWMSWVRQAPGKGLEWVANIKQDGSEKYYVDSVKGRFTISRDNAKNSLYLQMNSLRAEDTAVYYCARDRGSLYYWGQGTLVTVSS VL: AIQLTQSPSSLSASVGDRVTITCRPSQGIMWWLAWYQQKPGKAPKLLIYDASSLENGVPSRFSGSGSGTDFTLTISSLQPEDFATYYCQQFNSYPLTFGGGTKVEIK .
Response line: 2.9 ratio to XAB1 Fab

Prompt line: Please report the recorded Classic ELISA (normalized to XAB1 Fab) for MB463 (Fab, V domains shown, heavy chain C-terminal Flag tag) VH: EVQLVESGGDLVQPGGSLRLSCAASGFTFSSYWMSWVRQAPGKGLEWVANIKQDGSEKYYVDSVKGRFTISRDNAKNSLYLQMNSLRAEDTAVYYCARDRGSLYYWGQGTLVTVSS VL: AIQLTQSPSSLSASVGDRVTITCRPSQGIYFELAWYQQKPGKAPKLLIYDASSLENGVPSRFSGSGSGTDFTLTISSLQPEDFATYYCQQFNSYPLTFGGGTKVEIK .
Response line: 2.7 ratio to XAB1 Fab

Prompt line: Please report the recorded Classic ELISA (normalized to XAB1 Fab) for MB468 (Fab, V domains shown, heavy chain C-terminal Flag tag; with N56Q formatted to IgG as XAB3) VH: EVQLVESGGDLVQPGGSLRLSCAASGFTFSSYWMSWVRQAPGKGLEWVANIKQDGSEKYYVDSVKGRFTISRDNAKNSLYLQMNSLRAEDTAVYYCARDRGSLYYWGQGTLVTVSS VL: AIQLTQSPSSLSASVGDRVTITCRPSQGIYWELAWYQQKPGKAPKLLIYDASSLENGVPSRFSGSGSGTDFTLTISSLQPEDFATYYCQQFNSYPLTFGGGTKVEIK .
Response line: 2.8 ratio to XAB1 Fab

Source: patent US20180194839A1
